pKd: −log10 of the molar value.
So I've got pKd readings for PIP4K2B (Homo sapiens (Human), UniProt P78356), take a look.

>>> reported_result("Cc1ncsc1-c1ccc(CNC(=O)[C@@H]2C[C@@H](O)CN2C(=O)[C@@H](NC(=O)C2(F)CC2)C(C)(C)C)c(OCCCCCCC(=O)N2CCC3(CC2)CCN(c2cncc(Nc4ncc(Cl)c(-c5cccc(-c6ccccc6)c5)n4)c2)C3=O)c1")
"< 5.00"

Look at each compound and report its pKd.
1. CC(=O)Nc1cncc(Nc2ncc(Cl)c(-c3cccc(-c4ccccc4)c3)n2)c1
2. NS(=O)(=O)c1ccc(Nc2ncc(Cl)c(-c3cccc(-c4ccccc4)c3)n2)cc1

# output
< 5.00
< 5.00
